This listing pairs binders with measured koff.
- System tested: T1, rhesus recombinant CD70 (FLAG-TNC-rhesus CD70) (rhesus)
- T1 construct: also called rhesus Flag-TNC-CD70
- Experiment notes: Biacore; rhesus recombinant CD70 on chip; Fab injected
The response must be a number in s⁻¹ with no trailing unit.

Reference set (2 entries):
Reported koff for 4D2 Fab (Fab, V domains shown, Llama-derived Fab) VH: QVQLQESGPGLVKPSQTLSLACTVSGGSITTSYYYWSWIRQPPGKGLEWMGAIGSRGSTYYSPSLKTRTSISRDTSKNQFTLQLSSVTPEDTAVYYCARVTGEITYNSGSYYYTLNLFDYWGQGTQVTVSS VL: QSVLTQPPSLSASPGSSVRLTCTLSSGNSVGNYDISWYQQKAGSPPRYLLYYYSDSYKNQGSGVPSRFSGSKDPSANAGLLLISGLQAEDEADYYCSVSNSGTYKPVFGGGSKLTVLG : what is it?
0.00029

Reported koff for 57B6 Fab (Fab, V domains shown, Llama-derived Fab) VH: QLQLVESGGGLVQPGGSLRLSCAASGFSFSHYAMSWVRQAPGKGLEWVSGDNTYDGGTRYQDSVKGRFTISRDNGKNTLYLQMNSLKPEDTAVYYCAKDTGRGIMGEYGMDYWGKGTLVTVSS VL: QTVVTQEPSLSVSPGGTVTLTCGLKSGSVTSSNYPAWYQQTPGQAPRLLIYNTNSRHSGVPSRFSGSISGNKAALTITGAQPEDEADYYCALYMGSGSANAMFGGGTHLTVLG : what is it?
4e-05

Next, consider the following binder.
Reported koff for 9E1 Fab (Fab, V domains shown, Llama-derived Fab) VH: EVQLQESGGGVVQPGGSLRLSCAASGFTFDDYAMSWVRQAPGKGLEWVSSIYMYDSSTYYADSVKGRFTISTDNAKNTVYLQMNSLKSEDTAVYYCAKDINRSYGSSWSHFGPIFSSWGQGTQVTVSS VL: QAVVTQEPSLSVSPGGTVTLTCGLTSGSVTSSNYPDWYQQTPGQAPRLLIYNTNSRHSGVPSRFSGSISGNKAALTITGAQPEDEADYYCNLYMGSGGSKVFGGGTKLTVLG : what is it?
0.0002
